Measured TGI values are reported for all entries that follow.
Test system: NCI/ADR-RES ovarian
Test: NCI tumour cell line growth inhibition, 48 h

{"MOLECULE": "CC(C)=CCc1c(OC(=O)c2c(C)cc(O)cc2O)cc(CO)c(CO)c1O", "TGI": "85.6 µM"}
{"MOLECULE": "CCSc1sc(=Nc2ccc(N=c3sc(C)c(SC)s3)cc2)sc1-c1ccc(C)cc1", "TGI": "> 100 µM"}
{"MOLECULE": "COc1ccc2nc3ccc(OC)cc3c(SCCO)c2c1", "TGI": "> 80.3 µM"}
{"MOLECULE": "O=S(=O)(Nc1ccccc1Cl)c1ccc(-c2cnc(C3CC3)o2)cc1", "TGI": "65.9 µM"}
{"MOLECULE": "S=C(Nc1ccc(Br)cc1)Nc1ccc(Br)cc1", "TGI": "> 100 µM"}
{"MOLECULE": "O=C1c2ccccc2-c2c1c1c(=O)[nH]c3ccccc3c1n2Cc1ccccc1", "TGI": "> 100 µM"}
{"MOLECULE": "CC(=O)N=C1N(/C=C2\\C(=O)Oc3ccccc3C2=O)C(=O)/C(=C/c2ccc(OC(C)=O)cc2)N1C", "TGI": "> 100 µM"}
{"MOLECULE": "Cc1ccc(N2Cc3c(ccc4ccccc34)OP2(=O)Oc2ccc(Cl)c(C)c2)cc1 (configuration not stated)", "TGI": "> 100 µM"}
{"MOLECULE": "N#CCc1n[nH]c(Cc2ccccc2)n1", "TGI": "> 100 µM"}
{"MOLECULE": "O=C(CP(=O)(O)O)NC(CC(=O)OCc1ccccc1)C(=O)OCc1ccccc1 (configuration not stated)", "TGI": "> 100 µM"}
{"MOLECULE": "CCOC(=O)c1sc(-c2ccc(OS(=O)(=O)c3ccc(Br)s3)c(C=O)c2)nc1C", "TGI": "12.9 µM"}
{"MOLECULE": "COc1ccc(S(=O)(=O)N2CC(C)(C)CN(S(=O)(=O)c3ccc(OC)cc3)C2C(=O)NO)cc1", "TGI": "> 20 µM"}
{"MOLECULE": "C=C1C(O)C2C(=C(CCc3ccccc3)C13CC3)C(=O)C(C)(CO)C2O (configuration not stated)", "TGI": "> 100 µM"}
{"MOLECULE": "COc1ccc(-c2cn[nH]c2-c2cc(OC)c3c(c2)OCO3)cc1", "TGI": "27.4 µM"}
{"MOLECULE": "CCOC(=O)c1ccc(Nc2c3c(nc4ccccc24)CCCC3)cc1", "TGI": "> 100 µM"}
{"MOLECULE": "Cc1sc2nc(-c3ccncc3)c(/C=N/N=C(N)N)n2c1C", "TGI": "> 100 µM"}
{"MOLECULE": "Oc1ccc(-c2nc(-c3cccnc3)c(-c3ccc(Cl)cc3)[nH]2)cc1O", "TGI": "32.5 µM"}

###

Tested on: U251 CNS
Assay: NCI tumour cell line growth inhibition, 48 h

{"GIVEN_SMILES": "CC[C@]12C=CCN3CC[C@@]4(c5cc(Br)c(OC)cc5N(C)[C@H]4[C@@](O)(C(=O)NN)[C@@H]1O)[C@@H]32", "TGI": "> 100 µM"}
{"GIVEN_SMILES": "O=C1c2ccccc2-c2c1c1c(=O)[nH]c3ccccc3c1n2Cc1ccccc1", "TGI": "34.1 µM"}
{"GIVEN_SMILES": "CN(C)c1ccc(C(=C(c2ccc(N(C)C)cc2)c2ccc(N(C)C)cc2)c2ccc(N(C)C)cc2)cc1", "TGI": "28.1 µM"}
{"GIVEN_SMILES": "Cc1ccc(SC(CCC(Sc2ccc(C)cc2)Sc2ccc(C)cc2)Sc2ccc(C)cc2)cc1", "TGI": "> 100 µM"}
{"GIVEN_SMILES": "Cc1ccc(N=N/C(=N\\NC(=O)c2ccc(C)cc2)c2ccc(N(CCC#N)CCC#N)cc2C)cc1", "TGI": "> 100 µM"}
{"GIVEN_SMILES": "CC1=Nc2nc(Cl)cn2C(=O)C1(Cl)Cl", "TGI": "> 10 µM"}
{"GIVEN_SMILES": "O=C(c1ccccc1)N1CCN(C(=S)N(C(=O)c2ccccc2)c2ccccc2)C1=S", "TGI": "22.6 µM"}
{"GIVEN_SMILES": "COC(=O)CCC(=O)NC1=C(NCc2ccccc2)C(=O)c2ccccc2C1=O", "TGI": "94.8 µM"}
{"GIVEN_SMILES": "Clc1nc(Cl)c2ncn(Cc3cccc(Cn4cnc5c(Cl)nc(Cl)nc54)c3)c2n1", "TGI": "13.9 µM"}

###

System: KM12 colon
Assay: NCI tumour cell line growth inhibition, 48 h
Parameter TGI: see the listing below.
MEASURED_PARAMETER: TGI (µM)

{"COMPOUND": "O=C(Nc1cccc(-n2ccc3c(NC(=O)c4ccccc4)nccc32)c1)Nc1cc(C(F)(F)F)cc(C(F)(F)F)c1", "MEASURED_PARAMETER": "TGI", "OP": "=", "OBSERVED_MEASUREMENT": 4.7}
{"COMPOUND": "Cc1cnc2sn(-c3ccc(Oc4ccccc4)cc3)c(=O)c2c1", "MEASURED_PARAMETER": "TGI", "OP": "=", "OBSERVED_MEASUREMENT": 28}
{"COMPOUND": "Cc1[nH]c2ccccc2c1C(=O)CC1(O)C(=O)Nc2ccccc21 (stereo not given)", "MEASURED_PARAMETER": "TGI", "OP": ">", "OBSERVED_MEASUREMENT": 100}
{"COMPOUND": "Cc1ccsc1/C=N/Nc1nc2ccccc2s1", "MEASURED_PARAMETER": "TGI", "OP": "=", "OBSERVED_MEASUREMENT": 74.6}
{"COMPOUND": "CCCCC(=O)NS(=NC(=O)c1ccccc1)C(Cl)(Cl)Cl (stereo not given)", "MEASURED_PARAMETER": "TGI", "OP": ">", "OBSERVED_MEASUREMENT": 100}

###

System: PC-3 prostate
Assay: NCI tumour cell line growth inhibition, 48 h

{"COMPOUND": "Cc1ccc(-c2csc(/N=C3\\C(=O)Nc4ccccc43)n2)cc1", "TGI": "2.82 µM"}
{"COMPOUND": "CCCCc1ccc(Nc2nc3c(ncn3C3CC(O)C(CN=[N+]=[N-])O3)c(=O)[nH]2)cc1 (centres undefined)", "TGI": "> 100 µM"}
{"COMPOUND": "O=S(=O)(O)c1cc(O)c2c(N=Cc3ccccc3O)cc(S(=O)(=O)O)cc2c1", "TGI": "> 100 µM"}
{"COMPOUND": "Fc1ccc2[nH]cc(-c3nonc3-c3c[nH]c4ccc(Br)cc34)c2c1", "TGI": "7.68 µM"}
{"COMPOUND": "O=C(c1ccccc1)N1CCN(C(=S)N(C(=O)c2ccccc2)c2ccccc2)C1=S", "TGI": "20.5 µM"}
{"COMPOUND": "Cc1ccc(C)c2c1C(O)(C#Cc1ccccc1)c1ccccc1C2(O)C#Cc1ccccc1 (centres undefined)", "TGI": "> 23.7 µM"}
{"COMPOUND": "COc1ccc(S(=O)(=O)N2CC(C)(C)CN(S(=O)(=O)c3ccc(OC)cc3)C2C(=O)NO)cc1", "TGI": "> 20 µM"}
{"COMPOUND": "CCCCC(=O)NS(=NC(=O)c1ccccc1)C(Cl)(Cl)Cl (centres undefined)", "TGI": "> 100 µM"}
{"COMPOUND": "O=C1NC(SSC2=NNC3(C(=O)N2)c2ccccc2-c2ccccc23)=NNC12c1ccccc1-c1ccccc12", "TGI": "> 10 µM"}

###

Tested on: NCI-H460 lung
Labels: active, inactive

{"GIVEN_SMILES": "O=C1c2ccccc2-c2c1c1c(=O)[nH]c3ccccc3c1n2Cc1ccccc1", "ASSIGNED_LABEL": "inactive"}
{"GIVEN_SMILES": "Fc1ccc2[nH]cc(-c3nonc3-c3c[nH]c4ccc(Br)cc34)c2c1", "ASSIGNED_LABEL": "inactive"}
{"GIVEN_SMILES": "C=C1C(=O)O[C@H]2C[C@@H]1CC/C(C)=C/CC/C(C)=C/CC[C@H]2C", "ASSIGNED_LABEL": "inactive"}
{"GIVEN_SMILES": "CN(C)CCCNC(=O)c1cc(NC(=O)c2cc(NC(=O)CCc3c[nH]c4ccccc34)cn2C)cn1C", "ASSIGNED_LABEL": "inactive"}
{"GIVEN_SMILES": "N[C@H](C(=O)O)[C@H]1ON=C(Cl)[C@@H]1O", "ASSIGNED_LABEL": "inactive"}
{"GIVEN_SMILES": "O=S(=O)(Nc1ccccc1Cl)c1ccc(-c2cnc(C3CC3)o2)cc1", "ASSIGNED_LABEL": "active"}
{"GIVEN_SMILES": "CCC[CH2][Sn]([CH2]CCC)([CH2]CCC)[O]c1ccc(Cl)cc1Cl", "ASSIGNED_LABEL": "active"}
{"GIVEN_SMILES": "COc1ccc2c(c1)C(=O)c1c-2n(CCCN=[N+]=[N-])c(=O)c2cc(OC)c(OC)cc12", "ASSIGNED_LABEL": "inactive"}
{"GIVEN_SMILES": "COc1ccc(-c2cc(=O)c3ccc(C)nc3[nH]2)cc1", "ASSIGNED_LABEL": "inactive"}
{"GIVEN_SMILES": "COc1ccc(S(=O)(=O)N2CC(C)(C)CN(S(=O)(=O)c3ccc(OC)cc3)C2C(=O)NO)cc1", "ASSIGNED_LABEL": "inactive"}
{"GIVEN_SMILES": "COc1cc(NC(N)=NCCC(C)(C)Oc2ccc(C(F)(F)F)cc2)ncc1C#N", "ASSIGNED_LABEL": "inactive"}
{"GIVEN_SMILES": "O=c1c(Oc2ccc(F)cc2F)cc2cnc(NC3CCOCC3)nc2n1CCCO", "ASSIGNED_LABEL": "inactive"}
{"GIVEN_SMILES": "Cc1nn(-c2nc3ccccc3[nH]2)c(N)c1-c1ccc(Cl)cc1", "ASSIGNED_LABEL": "inactive"}
{"GIVEN_SMILES": "COC(=O)[C@@H](C)C[C@H](Cc1ccccc1)NC(=O)c1csc(CC[C@H](C(C)C)N(C)C(=O)[C@@H](NC(=O)[C@H]2CCCCN2C)C(C)C)n1", "ASSIGNED_LABEL": "active"}
{"GIVEN_SMILES": "COc1cccc(-c2nc3sccn3c2-c2ccnc(NCCCNS(=O)(=O)c3cccc(F)c3)c2)c1", "ASSIGNED_LABEL": "inactive"}
{"GIVEN_SMILES": "Cc1nc(SCC(=O)Nc2nc(-c3ccc(Cl)cc3)cs2)n(Nc2ccccc2)c1C", "ASSIGNED_LABEL": "inactive"}
{"GIVEN_SMILES": "CCCNNC(=O)/C=C/c1ccc(CNCCc2c(C)[nH]c3ccccc23)cc1", "ASSIGNED_LABEL": "active"}
{"GIVEN_SMILES": "Cc1ccc(-c2csc(/N=C3\\C(=O)Nc4ccccc43)n2)cc1", "ASSIGNED_LABEL": "inactive"}
{"GIVEN_SMILES": "C=C1C(=O)O[C@H]2[C@H]1CC/C(COC(=O)CSCCSCC(=O)OC/C1=C/CC[C@@]3(C)O[C@H]3[C@H]3OC(=O)C(=C)[C@@H]3CC1)=C\\CC[C@@]1(C)O[C@@H]21", "ASSIGNED_LABEL": "inactive"}
